The origin of these recorded values is patent US9302993B2.

Each item that follows carries a reported solubility.
assay: Turbidimetric solubility measurements (Assay 13); assay type: physicochemical; settings: simulated gastric fluid, kinetic from dmso stock; 0.01M HCl (approx. pH 2.0), 1% DMSO, nephelometry; read-out: Solubility (μg/mL) 0.01M HCl

{"structureNotation": "CN(C)Cc1ccc2c(Cl)cc(Cl)c(O)c2n1.Cl", "experimentalResult": "< 3.1 µg/mL"}
{"structureNotation": "Cn1cnc(CCNC(=O)c2ccc3c(Cl)cc(Cl)c(O)c3n2)c1", "experimentalResult": "25 to 50 µg/mL"}
{"structureNotation": "Oc1c(Cl)cc(Cl)c2ccc(-c3ccccn3)nc12", "experimentalResult": "6.3 to 12.5 µg/mL"}
{"structureNotation": "CCNCc1ccc2c(Cl)cc(Cl)c(O)c2n1.Cl", "experimentalResult": "< 3.1 µg/mL"}

# input for lookup
For the molecule O=C(NCCc1c[nH]cn1)c1ccc2c(Cl)cc(Cl)c(O)c2n1 , give its measured solubility value.
3.1 to 6.2 µg/mL

---

Each item that follows carries a reported Insoluble fraction. % change compared with control..
tested on: APP2576 transgenic mouse; test: Effect of administration of test compounds on Aβ deposits in transgenic animals (Assay 11); format: in vivo; design: concentration or dose not given beside the values; details: insoluble Aβ, transgenic mouse brains
Give the value in % but do not write % after it.

Sample records with Insoluble fraction. % change compared with control.:
{"structureNotation": "O=C(NCCc1c[nH]cn1)c1ccc2c(Cl)cc(Cl)c(O)c2n1", "experimentalResult": "−37"}
{"structureNotation": "CN(C)Cc1ccc2c(Cl)cc(Cl)c(O)c2n1.Cl", "experimentalResult": "−29"}
{"structureNotation": "Oc1c(Cl)cc(Cl)c2ccc(-c3ccccn3)nc12", "experimentalResult": "−22"}

# input for lookup
Give APP2576 transgenic mouse Insoluble fraction. % change compared with control. for the following compound: CCNCc1ccc2c(Cl)cc(Cl)c(O)c2n1.Cl
−21

---

assay: Pharmacokinetic profile, IV and oral (Assay 16); format: in vivo; conditions: rat, plasma, iv, 2 mg/kg, IV, Mean ± SD, read-out: Tmax (converted)
valueKind: Tmax
Answer format: value, then unit.

For the compound CN(C)Cc1ccc2c(Cl)cc(Cl)c(O)c2n1.Cl [compound 1033] , give its measured Tmax value.
12.5 min

---

test: Pharmacokinetic profile, IV and oral (Assay 16); format: in vivo; conditions: rat, plasma, po, 30 mg/kg, PO 30 mg/Kg, individual rats
valueKind: half-life (h)
Give the value in h but do not write h after it.

For the compound CCNCc1ccc2c(Cl)cc(Cl)c(O)c2n1.Cl , give its measured half-life value.
3.33

---

system: Neuronal cortical cells; assay: Assay for test compound cytoxicity, MTS (Assay 3(d)); type: cell-based, mouse; conditions: BL6J×129sv, mouse, 4 days, 10 uM
valueKind: Viable 10 uM
Returns: the value as a bare number; no unit string appended.

{"structureNotation": "Oc1c(-c2cc(Cl)c3cccnc3c2O)cc(Cl)c2cccnc12", "Viable 10 uM": 84.29}

# input for lookup
For the compound Oc1c(-c2cc3ccccc3s2)cc(Cl)c2cccnc12 , give its measured Viable 10 uM value.
32.33

---

target: hydrogen peroxide generation by Aβ in the presence of copper (Homo sapiens); construct: The reaction solutions contained Aβ 1-42 at concentrations in the range of 50 nM to 1 μM; test: Fluorometric H2O2 assay (Assay 1); assay type: biochemical; settings: Aβ 1-42 with Cu-Gly, DCF/HRP, 37 C 60 min; several values in one cell = repeat determinations; read-out: Peroxide IC50
Sequence (P05067 672-713 limits assumed): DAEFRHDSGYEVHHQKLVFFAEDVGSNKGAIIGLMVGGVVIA
pIC50: −log10 of the molar value.
Each item that follows carries a reported pIC50.

{"structureNotation": "Oc1ccc(F)c2cccnc12", "pIC50": 6.36}

For the compound CN(c1ccc2cccc(O)c2n1)c1ccc2cccc(O)c2n1 , give its measured pIC50 value.
6.15

For the compound CC(C)Oc1c(-c2cc(F)cc(F)c2)cc(Cl)c2cccnc12 , give its measured pIC50 value.
< 5.00

For the compound CC(C)Oc1c(-c2ccccc2C=O)cc(Cl)c2cccnc12 , give its measured pIC50 value.
< 5.00

For the compound Cc1ccccc1-c1cc(Cl)c2cccnc2c1O , give its measured pIC50 value.
> 6.11

For the compound CC(C)Oc1c(F)cc(-c2cc(F)cc(F)c2)c2cccnc12 , give its measured pIC50 value.
< 5.00

For the compound CC(C)Oc1c(-c2ccc(N(C)C)cc2)cc(Cl)c2cccnc12 , give its measured pIC50 value.
< 5.00
